Give measured IC50 for each item. Keep answers brief.
target: UniProt:Q2M2I8
Sequence (Q2M2I8 whole entry): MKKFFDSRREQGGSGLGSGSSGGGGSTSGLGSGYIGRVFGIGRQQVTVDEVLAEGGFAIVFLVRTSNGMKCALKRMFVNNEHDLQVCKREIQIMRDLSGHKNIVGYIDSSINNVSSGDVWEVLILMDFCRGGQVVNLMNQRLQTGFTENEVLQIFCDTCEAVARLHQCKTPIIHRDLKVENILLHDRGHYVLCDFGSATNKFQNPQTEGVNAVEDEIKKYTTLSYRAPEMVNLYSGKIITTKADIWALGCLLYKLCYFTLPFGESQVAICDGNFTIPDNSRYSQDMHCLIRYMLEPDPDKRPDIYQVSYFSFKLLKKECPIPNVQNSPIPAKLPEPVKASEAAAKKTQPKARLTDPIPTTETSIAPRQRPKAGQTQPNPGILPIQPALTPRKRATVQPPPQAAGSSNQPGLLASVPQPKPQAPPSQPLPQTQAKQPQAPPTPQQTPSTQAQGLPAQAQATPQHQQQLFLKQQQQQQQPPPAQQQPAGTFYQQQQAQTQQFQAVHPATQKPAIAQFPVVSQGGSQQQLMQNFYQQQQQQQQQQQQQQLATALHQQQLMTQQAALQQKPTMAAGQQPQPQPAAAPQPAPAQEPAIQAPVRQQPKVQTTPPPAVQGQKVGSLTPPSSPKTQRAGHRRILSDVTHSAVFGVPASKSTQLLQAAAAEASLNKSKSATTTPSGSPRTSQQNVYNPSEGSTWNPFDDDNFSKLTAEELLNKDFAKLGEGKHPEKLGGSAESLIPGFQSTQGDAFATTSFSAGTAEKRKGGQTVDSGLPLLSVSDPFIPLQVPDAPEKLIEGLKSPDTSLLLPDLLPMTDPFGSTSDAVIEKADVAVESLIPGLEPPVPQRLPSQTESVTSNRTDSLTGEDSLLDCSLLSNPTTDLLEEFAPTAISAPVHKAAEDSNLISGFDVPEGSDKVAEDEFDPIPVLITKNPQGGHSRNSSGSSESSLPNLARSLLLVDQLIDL
Numeric answer only, unit nM assumed.

// query Can you share its IC50? I mean this compound: CCc1nc(C(N)CC(C)C)nc2ccc(-c3cnco3)cc12 (stereo not drawn)
// result 67

// query What value of IC50 has been reported for the following compound? `CCc1nc([C@H](N)CC(C)C)nc2cc(OC)c(-c3cnco3)cc12`
// result 95

// query Request the reported IC50 associated with COc1cc2nc(C(N)CC(C)C)ncc2cc1-c1cnco1 (stereo not drawn)
// result 110
